- target_entity: human RORγt LBD fused to the DNA binding domain of the GAL4 protein (Homo sapiens (Human))
- Sequence (P51449 258-518): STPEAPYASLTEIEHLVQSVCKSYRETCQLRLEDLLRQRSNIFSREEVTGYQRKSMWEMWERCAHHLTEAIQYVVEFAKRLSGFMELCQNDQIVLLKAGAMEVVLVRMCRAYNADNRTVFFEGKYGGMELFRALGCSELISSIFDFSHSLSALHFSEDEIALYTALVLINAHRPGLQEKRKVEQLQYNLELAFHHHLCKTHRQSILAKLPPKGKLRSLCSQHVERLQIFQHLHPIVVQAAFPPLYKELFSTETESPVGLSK
- assay_explanation: RORγt (LBD) reporter assay in HEK293T cells
- Format: cell-based
- protocol_conditions: @ 6 μM
measured_metric: RORγt (LBD) Reporter Assay, % inhibition @ 6 μM (%)

a = COc1nc2ccc(C(O)(c3ccc(C(F)(F)F)nc3)c3cncn3C)cc2c(Cl)c1CN1CCC(C(F)(F)F)CC1 (single isomer, unassigned) [Example 112c]
b = COc1nc2ccc([C@@](O)(c3ccccc3)C3CCN(C(C)=O)CC3)cc2c(Cl)c1CC1CCOCC1
Request: Compare a and b and name the one whose reported RORγt (LBD) Reporter Assay, % inhibition @ 6 μM is smaller. Returns: label corresponding to the selected item.
Result: b

----------
- target_entity: human RORγt ligand binding domain (RORγt LBD) (Homo sapiens (Human))
- Sequence (P51449 other isoform, or with tags, fused parts or gaps): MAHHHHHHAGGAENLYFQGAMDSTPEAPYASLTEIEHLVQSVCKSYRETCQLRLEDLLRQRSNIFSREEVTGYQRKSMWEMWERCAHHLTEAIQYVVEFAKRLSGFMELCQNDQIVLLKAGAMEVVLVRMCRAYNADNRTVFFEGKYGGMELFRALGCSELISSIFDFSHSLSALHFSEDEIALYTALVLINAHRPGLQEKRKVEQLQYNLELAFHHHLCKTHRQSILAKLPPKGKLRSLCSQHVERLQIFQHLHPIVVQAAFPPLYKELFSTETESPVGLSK
- assay_explanation: RORγt ThermoFluor assay (thermal shift, binding affinity Kd)
- protocol_conditions: read-out: ThermoFluor ® Assay, Kd
measured_metric: Kd (nM)

INSERT INTO results (molecule, measured_metric, unit_symbol, obs_value) VALUES
  ('COc1nc2ccc(C(O)(c3ccc(C)nc3C)c3cnnn3C)cc2c(Cl)c1C(=O)NCC1CC1 (stereo not drawn) [Example 147]', 'Kd', 'nM', 930);

A = COc1nc2ccc(C(O)(c3ccc(C(F)(F)F)nc3)c3cncn3C)cc2c(C#N)c1CN1CCC(C(F)(F)F)CC1 (single isomer, unassigned) [Example 191c]
B = COc1nc2ccc(C(O)c3cnc(C)n3C)cc2c(Cl)c1OC(C)C (stereo not drawn) [Example 156]
C = COc1nc2ccc(C(O)(c3ccc(C)nc3C)c3cnnn3C)cc2c(Cl)c1C(=O)NCC(F)(F)F (stereo not drawn) [Example 152]
D = COc1nc2ccc(C(O)(c3ccc(C)nc3C)c3cnnn3C)cc2c(Cl)c1C(=O)N1CCCC1 (stereo not drawn) [Example 151]
Request: Which order do these items take when sorted by rising Kd? List them. API: response body holds the labels in the requested order.
Result: A, C, B, D

----------
- target_entity: human RORγt ligand binding domain (RORγt LBD) (Homo sapiens (Human))
- assay_explanation: RORγt ThermoFluor assay (thermal shift, binding affinity Kd)
- protocol_conditions: read-out: ThermoFluor Assay, Kd
measured_metric: Kd (nM)

INSERT INTO assay_data (molecule, measured_metric, obs_value) VALUES
  ('COc1nc2ccc(C(O)(c3ccc(C(F)(F)F)nc3)c3cncn3C)cc2c(Cl)c1CCC1CCN(C(C)=O)CC1 (centres unmarked) [Example 32]', 'Kd', 39),
  ('COc1nc2ccc(C(O)(c3ccc(C)nc3C)c3cnnn3C)cc2c(Cl)c1OCCS(C)(=O)=O (single isomer, unassigned) [Example 70b]', 'Kd', 2200),
  ('COc1nc2ccc(C(O)(c3ccc(C(F)(F)F)nc3)c3cncn3C)cc2c(Cl)c1OCc1cccnc1 (single isomer, unassigned) [Example 76b]', 'Kd', 1200);

a = COc1nc2ccc(C(O)(c3cnc(C)n3C)c3cnc(C)n3C)cc2c(Cl)c1OC1CCCN(C)C1 (single isomer, unassigned) [Example 51c]
b = COc1nc2ccc(C(O)(c3ccc(C)nc3C)c3cnnn3C)cc2c(Cl)c1OCCN1CCCC1 (single isomer, unassigned) [Example 67b]
Request: Compare a and b and name the one whose reported Kd is smaller. Returns: label corresponding to the selected item.
Result: b
